Here, each record is paired with measured IC50 data.
Test system: 293T
procedure details: Cell antiproliferative activity assay (CellTiter-Glo), 293T
Assay type: cell-based
assay conditions: Homo sapiens, HEK-293T, 72 hs, read-out: Cell Growth IC50 (nM) 293T
Only the number, expressed in nM, is required.

Examples from the recorded data:
[
  {
    "compound": "NC(=O)c1c(-c2ccc(Oc3ccccc3)cc2)nc2n1NCCC2C1CCN(C(=O)/C=C/C(F)(F)F)CC1 (single isomer, unassigned) [10a (peak 1)]",
    "test system": "293T",
    "property measured": "IC50",
    "recorded number": 1010
  },
  {
    "compound": "NC(=O)c1c(-c2ccc(Oc3ccccc3)cc2)nc2n1NCCC2C1CCN(C(=O)/C=C/C(F)(F)F)CC1 (stereo not shown) [Example 10]",
    "test system": "293T",
    "property measured": "IC50",
    "recorded number": 45300
  },
  {
    "compound": "C=CC(=O)N1CCC(C2CCNn3c2nc(-c2ccc(Oc4ccccc4)cc2)c3C(N)=O)CC1 (stereo not shown) [Example 1]",
    "test system": "293T",
    "property measured": "IC50",
    "recorded number": 573000
  }
]

Data request: Under 293T: IC50 value of C=CC(=O)N1CCC(C2CCNn3c2nc(-c2ccc(Oc4ccccc4)cc2)c3C(N)=O)CC1 (single isomer, unassigned) [1a (peak 1)] ?
Data returned: 8450

Values from patent US12552798B2
